Molecular target: Histidine--tRNA ligase (Leishmania infantum) (UniProt A4I591)
Sequence (whole entry): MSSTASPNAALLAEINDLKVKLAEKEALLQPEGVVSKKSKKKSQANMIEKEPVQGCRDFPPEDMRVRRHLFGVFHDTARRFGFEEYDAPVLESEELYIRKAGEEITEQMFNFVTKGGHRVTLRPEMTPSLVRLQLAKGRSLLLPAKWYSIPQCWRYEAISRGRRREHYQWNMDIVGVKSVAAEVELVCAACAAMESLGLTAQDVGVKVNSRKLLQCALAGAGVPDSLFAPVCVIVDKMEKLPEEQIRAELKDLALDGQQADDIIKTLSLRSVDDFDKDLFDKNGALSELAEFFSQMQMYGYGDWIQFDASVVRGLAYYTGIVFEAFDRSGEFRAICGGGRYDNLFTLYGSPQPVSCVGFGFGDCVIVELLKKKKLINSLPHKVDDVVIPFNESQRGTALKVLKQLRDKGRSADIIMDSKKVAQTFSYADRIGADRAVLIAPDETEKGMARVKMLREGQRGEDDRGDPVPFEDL
Experiment: Leishmania infantum Histidine tRNA synthetase (LdHisRS)
Format: functional
Parameters: scale not given: in the data most compounds retested in dose-response had high values
Settings: 30 µM
Out of some 69,000 compounds screened, about 420 (0.61%) showed an effect of 50% or more. The sample holds strong results, similar compounds and a random draw of the others, so the mix is not that of the screen.
Mark Met for Percent Effect under 10%, Not met if at or over.

As a guide, the following entries are already answered.
[[record]]
molecule = "CC(C)N1C[C@@H]2OCC(=O)N(Cc3ccccc3)[C@@H]2C1"
tested_on = "Histidine--tRNA ligase (Leishmania infantum) (UniProt A4I591)"
group = "Met"

[[record]]
molecule = "Cc1ccc(N2CC3(CCN(c4nccs4)C3)C2)nn1"
tested_on = "Histidine--tRNA ligase (Leishmania infantum) (UniProt A4I591)"
group = "Met"

[[record]]
molecule = "Cc1ccc(N2CCCC3(COCCN(c4nccs4)C3)C2)nn1 (stereo not given)"
tested_on = "Histidine--tRNA ligase (Leishmania infantum) (UniProt A4I591)"
group = "Not met"

[[record]]
molecule = "CS(=O)(=O)N[C@@H]1COC[C@@H]2CN(Cc3ccoc3)C[C@@H]21"
tested_on = "Histidine--tRNA ligase (Leishmania infantum) (UniProt A4I591)"
group = "Met"

[[record]]
molecule = "Cc1noc(C)c1C(=O)N1C[C@H]2CCC[C@@]2(COc2ccccn2)C1"
tested_on = "Histidine--tRNA ligase (Leishmania infantum) (UniProt A4I591)"
group = "Not met"


Asked: Please determine if Cc1cnc2n(c1=O)CC(C(=O)Nc1cccc3cccnc13)CS2 (stereo not given) is below 10% in terms of Percent Effect.
Given back: Not met

Asked: Please determine if "O=C(CN1CCN(c2ncccn2)[C@@H]2CS(=O)(=O)C[C@@H]21)N1CCCCC1" is below 10% in terms of Percent Effect.
Given back: Met

Asked: Please determine if "O=C(c1ccco1)N1CC[C@@H]2O[C@@H](COCC3CCOCC3)CC[C@@H]21" is below 10% in terms of Percent Effect.
Given back: Met

Asked: Please determine if "CS(=O)(=O)N[C@@H]1CN(C(=O)c2ccccn2)C[C@@H]2CCCO[C@@H]21" is below 10% in terms of Percent Effect.
Given back: Not met

Asked: Please determine if "Cc1ccc(N2CCC3(CC2)COCCN(c2nccs2)C3)nn1" is below 10% in terms of Percent Effect.
Given back: Not met

Source of measurements: ChEMBL document CHEMBL3988442
